- testedSystem: Genome polyprotein (Hepatitis C virus genotype 1b (isolate BK), UniProt P26663)
- Sequence (P26663 2420-3010 limits assumed): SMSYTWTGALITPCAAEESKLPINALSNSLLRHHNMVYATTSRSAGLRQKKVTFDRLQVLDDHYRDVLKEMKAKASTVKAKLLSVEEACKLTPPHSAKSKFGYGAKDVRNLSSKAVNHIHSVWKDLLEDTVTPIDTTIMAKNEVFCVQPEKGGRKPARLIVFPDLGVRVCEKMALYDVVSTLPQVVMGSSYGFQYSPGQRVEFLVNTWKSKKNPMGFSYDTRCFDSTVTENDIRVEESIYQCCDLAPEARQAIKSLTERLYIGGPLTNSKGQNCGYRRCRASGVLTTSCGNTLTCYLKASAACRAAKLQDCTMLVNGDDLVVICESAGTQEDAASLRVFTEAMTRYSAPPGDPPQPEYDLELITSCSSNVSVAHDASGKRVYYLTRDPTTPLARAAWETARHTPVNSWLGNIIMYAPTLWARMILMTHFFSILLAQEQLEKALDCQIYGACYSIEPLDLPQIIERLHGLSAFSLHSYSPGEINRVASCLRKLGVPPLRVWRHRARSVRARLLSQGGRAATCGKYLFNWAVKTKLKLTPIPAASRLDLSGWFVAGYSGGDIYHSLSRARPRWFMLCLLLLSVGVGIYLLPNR
- protocolDescription: NS5B Inhibition Assay
- statedConditions: pH 7; 30 °C
- Excerpt: Inhibition assay using HCV NS5B.
Note to self: use Fulfilled only for IC50 readings below 30 µM; a reading exactly at 30 µM still gets Not fulfilled.

* O=c1ccc2c(O)cc(O)cc2o1 | Not fulfilled
* Cc1cc(=O)oc2cc(O)cc(O)c12 | Not fulfilled
* C=CCOc1cc(OCC=C)c2ccc(=O)oc2c1 | Fulfilled
* Cc1cc(=O)oc2cc(O)ccc12 [4-Methyl-7-hydroxycoumarin] | Not fulfilled
* COc1cc(OC)c2ccc(=O)oc2c1 | Not fulfilled
